# Tested on: SEM cells
# test_protocol: cell viability relative to DMSO control; higher = less cytotoxic
# condition_parameters: HPLM + 10% dialyzed FBS; 48 h; 0.0632 µM
I'd be grateful if you could share measured cell viability for these entries.
Just the number in %, nothing appended.

Entry CC[C@H]1OC(=O)[C@H](C)[C@@H](O[C@H]2C[C@@](C)(OC)[C@@H](O)[C@H](C)O2)[C@H](C)[C@@H](O[C@@H]2O[C@H](C)C[C@H](N(C)C)[C@H]2O)[C@](C)(OC)C[C@@H](C)C(=O)[C@H](C)[C@@H](O)[C@]1(C)O , SEM cells data, cell viability value: 103

Noted cell viability for CN1C(=O)/C(=C(NC2=CC=C(I)C=C2F)\C3=C1\N=C/N(C[C@@H](O)CO)C3=O)F , tested on SEM cells: 89.6

// assay SEM cells, entry Cc1ccc([C@@H]2O[C@H](CO)[C@@H](O)[C@H](O)[C@H]2O)cc1Cc1ccc(-c2ccc(F)cc2)s1 , cell viability value = 130

Entry C[C@]1(O)CC(C1)C2=NC(=C3[N]2C=CN=C3N)C4=CC5=C(C=C4)C=CC(=N5)C6=CC=CC=C6 (configuration not stated) , SEM cells data, cell viability value: 87.1

Readout cell viability for CC1(COc2ccc3c(c2)ncn3-c2ccc3cccc(N4CCC(N)CC4)c3n2)COC1 , test system SEM cells, was 38.9

The reported cell viability value, SEM cells, for OC1=CC=C(C=C1)C/2=C/C3=C(OC2)C=C(O)C=C3 reads 114

Here C[C@]12CCC3c4ccc(O)cc4CCC3C1CCC2=O (some centres not stated) was tested on SEM cells, and its cell viability came to 91.4

Field cell viability (system: SEM cells) for entry CN(C)C/C=C/C(=O)Nc1ccc(C(=O)Nc2cccc(Nc3ncc(Cl)c(-c4c[nH]c5ccccc45)n3)c2)cc1 = 85.8

So the reported cell viability for CNC[C@H](O)[C@@H](O)[C@H](O)[C@H](O)CO , on SEM cells, turned out to be 106

Value sought: cell viability, system SEM cells, item Cc1ccc(C(=O)Nc2cccc(C(F)(F)F)c2)cc1Nc1nc(-c2cccnc2)nc2c1cnn2C . Result: 78.7

Form: item C[C@@H]1CC[C@@]2(CC[C@]3(C)\C(=C/C[C@@H]4[C@@]5(C)CC[C@H](O)C(C)(C)[C@@H]5CC[C@@]34C)[C@@H]2[C@H]1C)C(O)=O ; test system SEM cells; cell viability: 112

Measured cell viability (SEM cells), entry CNc1nc(-c2ccc3c(N)n[nH]c3c2)cc(N2C[C@@H](C(=O)NC3CCCCC3)CC[C@H]2C)n1 : 83.1

cell viability on SEM cells for NC(=O)c1cnccn1 is 120

Tested system SEM cells; cell viability recorded for Cc1nc(-c2ccc(OCC(C)C)c(C#N)c2)sc1C(=O)O was 115

Kindly note: SEM cells, CN(CCOc1ccc(CC2SC(=O)NC2=O)cc1)c1ccccn1 (configuration not stated) , cell viability value reported: 113

Given the compound CC(=O)N(C)C1(c2ccccc2)CCN(CCC[C@]2(c3ccc(Cl)c(Cl)c3)CCCN(C(=O)c3ccccc3)C2)CC1 and test system SEM cells, the measured cell viability is 123

cell viability for SEM cells with input CC(C)c1onc(-c2c(Cl)cccc2Cl)c1COc1ccc(/C=C/c2cccc(C(=O)O)c2)c(Cl)c1 equals 121

Bench note, SEM cells: entry NC(=O)c1cccc(-c2cc(Nc3ccc(OC(F)(F)F)cc3)ncn2)c1 , its cell viability = 87.2

Here COCCn1c2c([n+](Cc3cnccn3)c1C)C(=O)c1ccccc1C2=O was tested on SEM cells, and its cell viability came to 23.5

Record NC1=NC(=O)N2CC12 (configuration not stated) / SEM cells, cell viability recorded as 87.2

The reported cell viability value, SEM cells, for OC[C@H]1O[C@H](C[C@@H]1O)N2/C=C(C(=O)NC2=O)/C(F)(F)F reads 92.3

Form field cell viability for item C[C@H](NC(=O)Cc1cc(F)cc(F)c1)C(=O)N[C@H](C(=O)OC(C)(C)C)c1ccccc1 on SEM cells: 102

====

# Tested on: P12-Ichikawa
# test_protocol: cell viability relative to DMSO control; higher = less cytotoxic
# condition_parameters: RPMI 5 mM glucose + 10% dialyzed FBS; 48 h; 46.1 µM
endpoint_label: cell viability (%)
Number in %, nothing else.

// cell viability value for CO[C@@H](C(=O)N1Cc2[nH]nc(NC(=O)c3ccc(N4CCN(C)CC4)cc3)c2C1)c1ccccc1 : 54.8

// field: cell viability; key: C/C1=C2/[N]3[Co+]456([OH])<-[N]7=C1[C@@H](CCC(N)=O)C(C)(C)/C7=C/C1=[N]->4C(=C(/C)C4=[N]->5[C@@](C)([C@H]3[C@H](CC(N)=O)[C@@]2(C)CCC(=O)NC[C@@H](C)OP(=O)([O-])O[C@H]2[C@@H](O)[C@@H](n3c[n]->6c5cc(C)c(C)cc53)O[C@@H]2CO)[C@@](C)(CC(N)=O)[C@@H]4CCC(N)=O)/[C@@](C)(CC(N)=O)[C@@H]1CCC(N)=O ; value = 61

Form: compound = Cc1ccc2nc(NCCN)c3ncc(C)n3c2c1 ; cell viability = 33.7

====

# Tested on: SEM cells
# test_protocol: cell viability relative to DMSO control; higher = less cytotoxic
# condition_parameters: RPMI 5 mM glucose + 10% dialyzed FBS; 48 h; 0.00702 µM
endpoint_label: cell viability (%)
Please state the figure in %; there is no need to write the unit.

Item CC1(C)SCCN([S+](=O)([O-])c2ccc(OCC#CCO)cc2)[C@H]1C(=O)NO was tested on SEM cells; the reported cell viability is 105

Param item: CCC(C)CCCCC(=O)N[C@@H](CCN)C(=O)NC(C(=O)N[C@H](CCN)C(=O)N[C@@H]1CCNC(=O)C([C@@H](C)O)NC(=O)[C@@H](CCN)NC(=O)[C@@H](CCN)NC(=O)[C@@H](CC(C)C)NC(=O)[C@H](Cc2ccccc2)NC(=O)[C@H](CCN)NC1=O)[C@@H](C)O (stereo partly drawn) ; param system: SEM cells; output cell viability: 93.2

Considering CNC(=O)c1ccc2c(c1)NC(=O)/C2=C(\Nc1cccc(CN(C)C)c1)c1ccccc1 , its cell viability with SEM cells was recorded as 97.5

====

Hi there, I'd appreciate the recorded cell viability for every entry that follows.
# System: P12-Ichikawa
# test_protocol: cell viability relative to DMSO control; higher = less cytotoxic
# condition_parameters: RPMI 5 mM glucose + 10% dialyzed FBS; 48 h; 0.19 µM

For CO[C@@H](C(=O)N1Cc2[nH]nc(NC(=O)c3ccc(N4CCN(C)CC4)cc3)c2C1)c1ccccc1 the compound record lists cell viability as 34.5%

Summary for this compound, CCC(C)CCCCC(=O)N[C@@H](CCN)C(=O)NC(C(=O)N[C@H](CCN)C(=O)N[C@@H]1CCNC(=O)C([C@@H](C)O)NC(=O)[C@@H](CCN)NC(=O)[C@@H](CCN)NC(=O)[C@@H](CC(C)C)NC(=O)[C@H](Cc2ccccc2)NC(=O)[C@H](CCN)NC1=O)[C@@H](C)O (stereo partly specified) : cell viability is 117%

Documented cell viability of Cc1cn2cc(C(=O)N(C)CCO)cc(N[C@@H]3CCOc4cccc(C)c43)c2n1 : 114%

So, C[C@H](NC(=O)Cc1cc(F)cc(F)c1)C(=O)N[C@H](C(=O)OC(C)(C)C)c1ccccc1 ? Its cell viability was 88.8%

Entry under test: COc1cc(NCc2ccc3nc(N)nc(N)c3c2C)cc(OC)c1OC . Its cell viability was 87.6%

Item: CCCN[C@H]1CCc2nc(N)sc2C1 | cell viability: 101%

cell viability measured on COc1cc2c(cc1OC)[C@@H]1Cc3ccc(OC)c(OC)c3CN1CC2 = 110%

Reported cell viability for NC(=O)c1cccc(-c2cc(Nc3ccc(OC(F)(F)F)cc3)ncn2)c1 was 104%

// cell viability value for CC[C@H]1OC(=O)[C@H](C)[C@@H](O[C@H]2C[C@@](C)(OC)[C@@H](O)[C@H](C)O2)[C@H](C)[C@@H](O[C@@H]2O[C@H](C)C[C@H](N(C)C)[C@H]2O)[C@](C)(OC)C[C@@H](C)C(=O)[C@H](C)[C@@H](O)[C@]1(C)O : 94.3%

Lookup result for NC1=NC(=O)N2CC12 (stereo unspecified) ; measured cell viability: 88.5%

Value of measured cell viability for the entry COc1ccccc1[C@H](c1cccc2ccccc12)[C@@](C)(C#N)C(=O)N1CCC(c2cccc(C(F)(F)F)c2)CC1 : 111%

According to the records, this compound Cc1cc(Nc2ncc3c(n2)N(C)C(=O)N(c2cc(NC(=O)c4cccc(C(F)(F)F)c4)ccc2C)C3)n(C)n1 displays cell viability of 122%

The compound listed as C=CC(=O)Nc1cc2c(Nc3ccc(F)c(Cl)c3)ncnc2cc1C#CC(C)(C)N1CCN(C)CC1 shows cell viability equal to 98.2%

Item: CC(=O)SC[C@@H](C)C(=O)N1CCC[C@H]1C(=O)N[C@@H](Cc1ccccc1)C(=O)O | cell viability: 100%

// field: cell viability; key: CC(C)(N)c1ccc(-c2nc3ccccc3nc2-c2ccccc2)cc1 ; value = 22.3%

The reported cell viability of the compound CNc1nc(-c2ccc3c(N)n[nH]c3c2)cc(N2C[C@@H](C(=O)NC3CCCCC3)CC[C@H]2C)n1 was 69.9%
